Provenance of the data: patent US6277847A

System: field corn (Zea mays var. Pioneer 3732)
assay_explanation: post-emergence herbicidal activity, corn
Assay type: in vivo
measurement_setup: 1 Kg/Ha, about fourteen days, read-out: post-emergence herbicidal activity (% control) CRN
Listed next: entries and their corresponding activity at 1000 g/ha.
Return type: number; implicit unit %.

Answered examples (4):
INSERT INTO measurements (smiles_structure, unit_abbrev, result_number) VALUES
  ('Cn1c(C(F)(F)F)cc(=O)n(-c2ccc(Cl)c3c2CN(CCF)C3=O)c1=O', '%', 100),
  ('C#CCN1Cc2c(-n3c(=O)cc(C(F)(F)F)n(C)c3=O)ccc(Cl)c2C1=O', '%', 100),
  ('Cn1c(C(F)(F)F)cc(=O)n(-c2ccc(Cl)c3c2CN(C2CCCCC2)C3=O)c1=O', '%', 100),
  ('CCOC(=O)CN1Cc2c(-n3c(=O)cc(C(F)(F)F)n(C)c3=O)ccc(Cl)c2C1=O', '%', 40);

Lab note: next compound to report on.
Give recorded activity at 1000 g/ha. COC(=O)CCN1Cc2c(-n3c(=O)cc(C(F)(F)F)n(C)c3=O)ccc(Cl)c2C1=O
95

---

Listed next: entries and their corresponding activity at 1000 g/ha.
Test system: wheat (Triticum aestivum var. Lew)
assay_explanation: pre-emergence herbicidal activity, wheat
Type: in vivo
measurement_setup: 1 kg/Ha, about fourteen days, read-out: pre-emergence herbicidal activity (% control) WHT

Answered examples (3):
INSERT INTO results (compound, measurement_label, result) VALUES
  ('CC(C)N1Cc2c(c(Cl)cc(Cl)c2N2C(=O)C3=C(CCCC3)C2=O)C1=O [Compound 82]', 'activity at 1000 g/ha', '60%'),
  ('Cn1c(C(F)(F)F)cc(=O)n(-c2ccc(Cl)c3c2CNC3=O)c1=O [Compound 12]', 'activity at 1000 g/ha', '100%'),
  ('CCCCN1Cc2c(-n3c(=O)cc(C(F)(F)F)n(C)c3=O)ccc(Cl)c2C1=O [Compound 11]', 'activity at 1000 g/ha', '100%');

Give recorded activity at 1000 g/ha. CC(C)N1Cc2c(-n3c(=O)cc(C(F)(F)F)n(N)c3=O)ccc(Cl)c2C1=O [Compound 70]
100%

Give recorded activity at 1000 g/ha. CC(C)N1Cc2c(-n3c(=O)cc(C(F)(F)F)n(Cc4ccccc4)c3=O)ccc(Cl)c2C1=O [Compound 73]
69%

Give recorded activity at 1000 g/ha. Cn1c(C(F)(F)F)cc(=O)n(-c2ccc(Cl)c3c2CN(Cc2ccccc2)C3=O)c1=O [Compound 10]
70%

---

Listed next: entries and their corresponding activity at 1000 g/ha.
Test system: Johnsongrass (Sorghum halepense)
assay_explanation: post-emergence herbicidal activity, johnsongrass
Type: in vivo
measurement_setup: 1 Kg/Ha, about fourteen days, read-out: post-emergence herbicidal activity (% control) SORHA
Return type: number; implicit unit %.

INSERT INTO measurements (smiles_structure, measurement_label, result_number) VALUES
  ('Cn1c(C(F)(F)F)cc(=O)n(-c2ccc(Cl)c3c2CN(CC(F)(F)F)C3=O)c1=O', 'activity at 1000 g/ha', 100);

Give recorded activity at 1000 g/ha. CCON1Cc2c(-n3c(=O)cc(C(F)(F)F)n(C)c3=O)ccc(Cl)c2C1=O
100

Give recorded activity at 1000 g/ha. Cn1c(C(F)(F)F)cc(=O)n(-c2ccc(Cl)c3c2CN(O)C3=O)c1=O
65

---

Test system: field corn (Zea mays var. Pioneer 3732)
assay_explanation: post-emergence herbicidal activity, corn
Type: in vivo
measurement_setup: 1 Kg/Ha, about fourteen days, read-out: post-emergence herbicidal activity (% control) CRN
measurement_label: activity at 1000 g/ha (%)
Return type: number; implicit unit %.

Answered examples (8):
INSERT INTO assay_data (smiles_structure, measurement_label, result_number) VALUES
  ('CC(C)N1Cc2c(-n3c(=O)cc(C(F)(F)F)n(C)c3=O)ccc(Br)c2C1=O', 'activity at 1000 g/ha', 100),
  ('CC(C)N1Cc2c(-n3c(=O)cc(C(F)(F)F)n(Cc4ccccc4)c3=O)ccc(Cl)c2C1=O', 'activity at 1000 g/ha', 75),
  ('Cn1c(C(F)(F)F)cc(=O)n(-c2ccc(Cl)c3c2CN(Cc2ccccc2)C3=O)c1=O', 'activity at 1000 g/ha', 60),
  ('C=CCN1Cc2c(-n3c(=O)cc(C(F)(F)F)n(C)c3=O)ccc(Cl)c2C1=O', 'activity at 1000 g/ha', 100),
  ('COCCN1Cc2c(-n3c(=O)cc(C(F)(F)F)n(C)c3=O)ccc(Cl)c2C1=O', 'activity at 1000 g/ha', 80),
  ('C=CCn1c(C(F)(F)F)cc(=O)n(-c2ccc(Cl)c3c2CN(C(C)C)C3=O)c1=O', 'activity at 1000 g/ha', 75),
  ('COCN1Cc2c(-n3c(=O)cc(C(F)(F)F)n(C)c3=O)ccc(Cl)c2C1=O', 'activity at 1000 g/ha', 100),
  ('CCn1c(C(F)(F)F)cc(=O)n(-c2ccc(Cl)c3c2CN(C(C)C)C3=O)c1=O', 'activity at 1000 g/ha', 90);

Give recorded activity at 1000 g/ha. CCCn1c(C(F)(F)F)cc(=O)n(-c2ccc(Cl)c3c2CN(C(C)C)C3=O)c1=O
60

Give recorded activity at 1000 g/ha. Cn1c(C(F)(F)F)cc(=O)n(-c2c(Cl)cc(Cl)c3c2CNC3=O)c1=O
60

Give recorded activity at 1000 g/ha. Cn1c(C(F)(F)F)cc(=O)n(-c2ccc(Cl)c3c2CN(O)C3=O)c1=O
70

Give recorded activity at 1000 g/ha. CCCN1Cc2c(-n3c(=O)cc(C(F)(F)F)n(C)c3=O)ccc(Cl)c2C1=O
100

Give recorded activity at 1000 g/ha. Cn1c(C(F)(F)F)cc(=O)n(-c2ccc(Cl)c3c2CN(Cc2ccc(Cl)cc2)C3=O)c1=O
70

Give recorded activity at 1000 g/ha. Cn1c(C(F)(F)F)cc(=O)n(-c2c(Cl)cc(Cl)c3c2CN(C(C)(C)C)C3=O)c1=O
100

Give recorded activity at 1000 g/ha. COc1ccc(CN2Cc3c(-n4c(=O)cc(C(F)(F)F)n(C)c4=O)ccc(Cl)c3C2=O)cc1
90

Give recorded activity at 1000 g/ha. CC(C)N1Cc2c(-n3nc4n(c3=O)CCCC4)ccc(Cl)c2C1=O
60

---

Test system: soybean (Glycine max -- var. Winchester)
assay_explanation: pre-emergence herbicidal activity, soybean
Format: in vivo
measurement_setup: 1 kg/Ha, about fourteen days, read-out: pre-emergence herbicidal activity (% control) SOY
measurement_label: activity at 1000 g/ha (%)
Return type: number; implicit unit %.

Give recorded activity at 1000 g/ha. Cn1c(C(F)(F)F)cc(=O)n(-c2c(Cl)cc(Cl)c3c2CN(C(C)(C)C)C3=O)c1=O
100

Give recorded activity at 1000 g/ha. CN1Cc2c(-n3c(=O)cc(C(F)(F)F)n(C)c3=O)ccc(Cl)c2C1=O
100

Give recorded activity at 1000 g/ha. Cn1c(C(F)(F)F)cc(=O)n(-c2ccc(Cl)c3c2CN(O)C3=O)c1=O
95

Give recorded activity at 1000 g/ha. CCCn1c(C(F)(F)F)cc(=O)n(-c2ccc(Cl)c3c2CN(C(C)C)C3=O)c1=O
20

Give recorded activity at 1000 g/ha. Cn1c(C(F)(F)F)cc(=O)n(-c2ccc(Cl)c3c2CN(CC(F)(F)F)C3=O)c1=O
100

---

Listed next: entries and their corresponding activity at 1000 g/ha.
System: field corn (Zea mays var. Pioneer 3732)
assay_explanation: post-emergence herbicidal activity, corn
Format: in vivo
measurement_setup: 1 Kg/Ha, about fourteen days, read-out: post-emergence herbicidal activity (% control) CRN
Return type: number; implicit unit %.

Give recorded activity at 1000 g/ha. Cn1c(C(F)(F)F)cc(=O)n(-c2ccc(Cl)c3c2CN(C(C)(C)C)C3=O)c1=O
80

Give recorded activity at 1000 g/ha. Cn1c(C(F)(F)F)cc(=O)n(-c2ccc(Cl)c3c2CN(CC(F)(F)F)C3=O)c1=O
100

Give recorded activity at 1000 g/ha. Cn1c(C(F)(F)F)cc(=O)n(-c2c(Cl)cc(Cl)c3c2CN(O)C3=O)c1=O
40

Give recorded activity at 1000 g/ha. Cn1c(C(F)(F)F)cc(=O)n(-c2ccc(Cl)c3c2CN(CC2CC2)C3=O)c1=O
100

---

Test system: Johnsongrass (Sorghum halepense)
assay_explanation: post-emergence herbicidal activity, johnsongrass
Format: in vivo
measurement_setup: 1 Kg/Ha, about fourteen days, read-out: post-emergence herbicidal activity (% control) SORHA
Listed next: entries and their corresponding activity at 1000 g/ha.
Return type: number; implicit unit %.

INSERT INTO assay_data (smiles_structure, result_number) VALUES
  ('Cn1c(C(F)(F)F)cc(=O)n(-c2ccc(Cl)c3c2CN(CC2CC2)C3=O)c1=O', 100);

Give recorded activity at 1000 g/ha. CC(C)N1Cc2c(-n3c(=O)cc(C(F)(F)F)n(C)c3=O)ccc(Cl)c2C1=O
100

Give recorded activity at 1000 g/ha. CCOC(=O)CN1Cc2c(-n3c(=O)cc(C(F)(F)F)n(C)c3=O)ccc(Cl)c2C1=O
40

Give recorded activity at 1000 g/ha. CC(C)N1Cc2c(ccc(Cl)c2-n2c(=O)cc(C(F)(F)F)n(C)c2=O)C1=O
100

Give recorded activity at 1000 g/ha. C=CCON1Cc2c(-n3c(=O)cc(C(F)(F)F)n(C)c3=O)ccc(Cl)c2C1=O
100
